- tested_on: wild type (WT) MET kinase (Homo sapiens, UniProt P08581)
- Construct: purchased Carna 08-151
- Sequence (P08581 25-1390): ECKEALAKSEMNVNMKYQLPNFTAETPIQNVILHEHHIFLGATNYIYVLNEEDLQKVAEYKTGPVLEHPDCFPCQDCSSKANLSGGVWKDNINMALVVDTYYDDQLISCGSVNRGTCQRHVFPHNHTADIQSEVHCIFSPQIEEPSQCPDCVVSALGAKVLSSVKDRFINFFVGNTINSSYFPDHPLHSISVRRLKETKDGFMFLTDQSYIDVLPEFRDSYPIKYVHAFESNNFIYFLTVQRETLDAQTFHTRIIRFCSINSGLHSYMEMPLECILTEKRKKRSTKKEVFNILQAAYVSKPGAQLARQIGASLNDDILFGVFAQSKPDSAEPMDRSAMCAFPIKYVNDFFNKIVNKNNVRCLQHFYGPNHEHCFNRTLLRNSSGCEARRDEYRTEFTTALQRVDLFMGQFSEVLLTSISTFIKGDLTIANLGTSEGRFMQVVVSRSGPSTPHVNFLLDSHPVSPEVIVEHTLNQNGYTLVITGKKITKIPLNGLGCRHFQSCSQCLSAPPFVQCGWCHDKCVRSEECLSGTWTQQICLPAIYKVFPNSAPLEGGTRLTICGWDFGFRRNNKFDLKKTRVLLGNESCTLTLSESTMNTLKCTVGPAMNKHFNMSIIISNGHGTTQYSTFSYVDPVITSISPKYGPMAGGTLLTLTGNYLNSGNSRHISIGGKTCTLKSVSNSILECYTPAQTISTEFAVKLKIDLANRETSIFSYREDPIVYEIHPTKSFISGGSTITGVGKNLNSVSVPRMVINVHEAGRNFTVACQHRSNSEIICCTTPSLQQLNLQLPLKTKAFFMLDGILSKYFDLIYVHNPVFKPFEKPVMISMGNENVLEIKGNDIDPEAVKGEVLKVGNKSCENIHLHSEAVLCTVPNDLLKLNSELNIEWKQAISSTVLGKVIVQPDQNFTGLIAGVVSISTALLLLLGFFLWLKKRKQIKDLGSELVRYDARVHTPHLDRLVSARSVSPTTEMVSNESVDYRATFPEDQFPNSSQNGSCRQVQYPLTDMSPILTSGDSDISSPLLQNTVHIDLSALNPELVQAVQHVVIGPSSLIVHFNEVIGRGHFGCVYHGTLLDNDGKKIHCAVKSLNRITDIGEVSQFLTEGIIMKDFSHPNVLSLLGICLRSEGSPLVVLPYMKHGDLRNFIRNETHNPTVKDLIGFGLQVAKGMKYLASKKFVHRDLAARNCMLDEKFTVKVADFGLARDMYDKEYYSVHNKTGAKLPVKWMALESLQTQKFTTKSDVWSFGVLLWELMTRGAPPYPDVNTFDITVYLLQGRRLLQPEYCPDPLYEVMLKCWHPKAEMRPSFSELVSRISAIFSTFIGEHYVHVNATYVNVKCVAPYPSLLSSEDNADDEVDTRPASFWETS
- experimental_protocol: Kinase inhibition experiment (HTRF KinEASE-TK kit), wild-type MET
- Format: biochemical
- protocol_conditions: 10 concentrations, 3-fold dilution
Field: label. Allowed values: Satisfied (IC50 < 5 nM) or Not satisfied (IC50 >= 5 nM).

## Task Quick check: does O=C(Nc1ccc(Oc2ccnc3[nH]nc(N[C@H]4CC[C@@H](O)C4)c23)c(Cl)c1)c1ccc(F)c(-c2ccc(F)cc2)[n+]1[O-] [Final product 119] have IC50 under 5 nM?
## Result Not satisfied

## Task Subsequent entry: C[C@H](CO)Nc1n[nH]c2nccc(Oc3ccc(NC(=O)c4cccc(-c5ccc(Cl)cc5)[n+]4[O-])cc3F)c12 [Final product 42]
## Result Satisfied

## Task Subsequent entry: C[C@H](CO)Nc1n[nH]c2nccc(Oc3ccc(NC(=O)c4ccc(Cl)c(-c5ccc(F)cc5)[n+]4[O-])cc3F)c12 [Final product 57]
## Result Satisfied

## Task Now this one: C[C@H](CO)Nc1n[nH]c2nccc(Oc3ccc(NC(=O)c4ccc(Cl)c(-c5ccc(F)cc5)[n+]4[O-])cc3Cl)c12 [Final product 121]
## Result Satisfied

###

- tested_on: MET F1200I (Homo sapiens, UniProt P08581, F1200I)
- Construct: purchased Signalchem M52-12GG/Y767-2
- Sequence (P08581 25-1390 F1200I): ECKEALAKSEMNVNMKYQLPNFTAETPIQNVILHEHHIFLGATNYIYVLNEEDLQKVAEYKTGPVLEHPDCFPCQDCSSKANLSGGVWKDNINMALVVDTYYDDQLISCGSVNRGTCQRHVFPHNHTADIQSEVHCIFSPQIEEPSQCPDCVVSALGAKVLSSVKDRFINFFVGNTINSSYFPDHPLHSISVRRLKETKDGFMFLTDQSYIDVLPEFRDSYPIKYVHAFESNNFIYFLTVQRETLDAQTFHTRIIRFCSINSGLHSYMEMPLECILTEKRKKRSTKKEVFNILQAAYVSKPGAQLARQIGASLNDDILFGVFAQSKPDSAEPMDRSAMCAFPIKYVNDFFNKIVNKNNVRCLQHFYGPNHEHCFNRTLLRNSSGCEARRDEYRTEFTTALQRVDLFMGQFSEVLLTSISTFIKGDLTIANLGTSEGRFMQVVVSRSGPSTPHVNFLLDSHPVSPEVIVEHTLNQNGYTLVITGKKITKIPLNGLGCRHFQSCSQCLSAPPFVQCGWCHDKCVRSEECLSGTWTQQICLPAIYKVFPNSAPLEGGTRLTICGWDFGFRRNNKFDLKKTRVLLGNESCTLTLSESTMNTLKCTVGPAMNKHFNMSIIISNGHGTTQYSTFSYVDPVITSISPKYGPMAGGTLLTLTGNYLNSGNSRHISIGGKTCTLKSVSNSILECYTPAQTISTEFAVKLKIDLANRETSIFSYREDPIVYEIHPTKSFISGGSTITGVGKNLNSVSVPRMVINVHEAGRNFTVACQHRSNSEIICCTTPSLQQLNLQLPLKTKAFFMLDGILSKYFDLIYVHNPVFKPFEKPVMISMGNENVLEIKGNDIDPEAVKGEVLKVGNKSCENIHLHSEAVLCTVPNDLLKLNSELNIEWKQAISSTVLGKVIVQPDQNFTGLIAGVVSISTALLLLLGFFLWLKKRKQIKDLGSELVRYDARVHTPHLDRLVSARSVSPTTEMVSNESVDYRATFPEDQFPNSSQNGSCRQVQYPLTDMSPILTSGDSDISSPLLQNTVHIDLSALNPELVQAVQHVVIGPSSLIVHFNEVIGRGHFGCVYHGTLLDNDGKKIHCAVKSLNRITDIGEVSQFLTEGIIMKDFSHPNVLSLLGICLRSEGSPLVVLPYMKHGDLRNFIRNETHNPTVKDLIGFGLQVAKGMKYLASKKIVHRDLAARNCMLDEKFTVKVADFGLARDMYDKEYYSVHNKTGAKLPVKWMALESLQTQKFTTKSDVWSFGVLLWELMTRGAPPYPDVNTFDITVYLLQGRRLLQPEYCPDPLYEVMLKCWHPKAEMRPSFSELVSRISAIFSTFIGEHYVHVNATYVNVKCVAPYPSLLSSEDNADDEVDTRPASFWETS
- experimental_protocol: Kinase inhibition experiment (HTRF KinEASE-TK kit), mutant MET F1200I
- Type: biochemical
- protocol_conditions: 10 concentrations, 3-fold dilution
endpoint_label: IC50 (nM)
Just the number in nM, nothing appended.

## Task Any idea what IC50 came out for O=C(Nc1ccc(Oc2ccnc3[nH]nc(N[C@@H]4CCC(O)C4)c23)c(F)c1)c1ccc(Cl)c(-c2ccc(F)cc2)[n+]1[O-] (stereo partly drawn) on MET F1200I (Homo sapiens, UniProt P08581, F1200I)?
## Result 13.1

## Task Next record, please: O=C(Nc1ccc(Oc2ccnc3[nH]cc(-c4cccnc4)c23)c(F)c1)c1ccc(Cl)c(-c2ccc(F)cc2)[n+]1[O-] [Final product 185, reference compound]
## Result 187

## Task Would you mind doing `O=C(Nc1ccc(Oc2ccnc3[nH]nc(N[C@H]4COC[C@@H]4O)c23)c(Cl)c1)c1ccc(F)c(-c2ccc(F)cc2)[n+]1[O-]` as well?
## Result 14.5

## Task Now give it for `C[C@H](CO)Nc1n[nH]c2nccc(Oc3ccc(NC(=O)c4ccc(C(F)(F)F)c(-c5ccc(F)cc5)[n+]4[O-])cc3F)c12` too.
## Result 29.6

## Task Please give the result for `O=C(Nc1ccc(Oc2ccnc3[nH]nc(N4CC(CO)C4)c23)c(F)c1)c1cccc(-c2ccc(F)cc2)[n+]1[O-]` too.
## Result 4.3

## Task Another compound to look at: `Cc1ccc(C(=O)Nc2ccc(Oc3ccnc4[nH]nc(N[C@H](C)CO)c34)c(F)c2)[n+]([O-])c1-c1ccc(F)cc1`
## Result 16.3

## Task Same question, `CC[C@H](CO)Nc1n[nH]c2nccc(Oc3ccc(NC(=O)c4ccc(Cl)c(-c5ccc(F)cc5)[n+]4[O-])cc3F)c12` this time
## Result 16.1

## Task Another compound: `C[C@H](CO)Nc1n[nH]c2nccc(Oc3ccc(NC(=O)c4ccc(F)c(-c5ccc(F)cc5)[n+]4[O-])c(F)c3)c12`
## Result 13.2

## Task Now consider `Cc1ccc(C(=O)Nc2ccc(Oc3ccnc4[nH]nc(N[C@H]5COC[C@@H]5O)c34)c(Cl)c2)[n+]([O-])c1-c1ccc(F)cc1` .
## Result 8.8

## Task Now consider O=C(Nc1ccc(Oc2ccnc3[nH]nc(NCC(O)CO)c23)c(F)c1)c1cccc(-c2ccc(F)cc2)[n+]1[O-] (stereo not drawn) and answer again.
## Result 6.5

## Task Here is the next compound: `C[C@H](CO)Nc1n[nH]c2nccc(Oc3cc(F)c(NC(=O)c4ccc(Cl)c(-c5ccc(F)cc5)[n+]4[O-])cc3Cl)c12`
## Result 15.9

## Task Same read-out for `O=C(Nc1ccc(Oc2ccnc3[nH]nc(N4CCO[C@@H](CO)C4)c23)c(F)c1)c1cccc(-c2ccc(F)cc2)[n+]1[O-]` ?
## Result 12.3
